The reported measurements were obtained from ChEMBL document CHEMBL4396962.

SYSTEM: Histamine H3 receptor (Homo sapiens)
Sequence (Q9Y5N1 whole entry): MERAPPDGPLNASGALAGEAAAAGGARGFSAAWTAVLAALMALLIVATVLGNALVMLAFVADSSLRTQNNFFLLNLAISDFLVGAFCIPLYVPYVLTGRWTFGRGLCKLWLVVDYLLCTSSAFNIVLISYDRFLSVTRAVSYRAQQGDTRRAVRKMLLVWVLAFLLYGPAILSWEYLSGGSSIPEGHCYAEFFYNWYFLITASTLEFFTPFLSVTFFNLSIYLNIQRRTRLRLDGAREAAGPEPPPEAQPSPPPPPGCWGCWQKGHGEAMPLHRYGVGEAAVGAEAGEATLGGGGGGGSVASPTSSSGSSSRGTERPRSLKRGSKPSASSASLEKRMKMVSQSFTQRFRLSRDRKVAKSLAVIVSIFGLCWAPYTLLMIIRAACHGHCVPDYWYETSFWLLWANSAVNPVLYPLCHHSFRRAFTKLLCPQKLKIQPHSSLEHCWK
ASSAY PROCEDURE: Displacement of [3H]methyl- N-alpha methylhistamine dihydrochloride from human recombinant H3 receptor expressed in CHOK1 cells measured after 30 mins by liquid scintillation counter method
MEASUREMENT KIND: Ki (nM)

Study these solved cases before continuing.
| SMILES CODE | Ki [nM] |
| --- | --- |
| CCNC(=O)[C@H]1CC[C@@]2(C)CC[C@@H]3c4ccc(OCCCN5CCC[C@H]5C)cc4CC[C@H]3[C@H]12 | 9 |
| C[C@]12CC[C@@H]3c4ccc(OCCCN5CCCC5=O)cc4CC[C@H]3[C@@H]1CC[C@@H]2N1CCCC1 | 9 |
| CCNC(=O)[C@H]1CC(=O)[C@@]2(C)CC[C@@H]3c4ccc(OCCCN5CCC[C@@H]5C)cc4CC[C@H]3[C@H]12 | 21 |
| CCNC(=O)[C@H]1C[C@H](OC)[C@@]2(C)CC[C@@H]3c4ccc(OCCCN5CCC[C@H]5C)cc4CC[C@H]3[C@H]12 | 9 |
| C[C@@H]1CCCN1CCCOc1ccc2c(c1)CC[C@H]1[C@@H]3[C@@H](C(=O)NCC4CC4)CC[C@@]3(C)CC[C@H]21 | 9 |

[A] CC(=O)N[C@@H]1CC(=O)[C@@]2(C)CC[C@@H]3c4ccc(OCCCN5CCC[C@H]5C)cc4CC[C@H]3[C@H]12
[B] C[C@@H]1CCCN1CCCOc1ccc2c(c1)CC[C@@H]1[C@@H]2CC[C@]2(C)[C@@H](C(=O)N3CCCC3)CC[C@@H]12
[C] C[C@@H]1CCCN1CCCOc1ccc2c(c1)CC[C@H]1[C@@H]3[C@@H](C(=O)NCC4CCC4)CC[C@@]3(C)CC[C@H]21
[D] CCNC(=O)[C@@H]1CC(=O)[C@@]2(C)CC[C@@H]3c4ccc(OCCCCN5CCC[C@@H]5C)cc4CC[C@H]3[C@H]12
[E] CCNC(=O)[C@H]1CC(=O)[C@@]2(C)CC[C@@H]3c4ccc(OCCCN5CCC(F)(F)CC5)cc4CC[C@H]3[C@H]12
INPUT: Given 5 compounds, produce a descending ranking by Ki. Give the labels in the order requested.
OUTPUT: E, D, A, C, B
